# Tested on: transglutaminase (TGase)
# Test Details: Measurement of TG (TGase inhibitory activity, monodansyl cadaverine / N,N-dimethylcasein fluorescence, FDSS 3000)
# Format: biochemical
# Conditions Used: TGase activity with compound (10 mM, 1 μL in 0.1 ml enzyme reaction solution); DMSO control taken as 100
Measurement Type: TGase activity remaining (% of DMSO control = 100)
Simply state the number, no unit and no words.

So what does the record say about TGase activity remaining (% of DMSO control = 100) for COc1ccc(C(OB(c2ccc(C)c(Cl)c2)c2ccc(C)c(Cl)c2)c2ccccn2)cc1 (centres unmarked) [Example 127] ? 109

So what does the record say about TGase activity remaining (% of DMSO control = 100) for NC(=O)CC(N)C(=O)OB(c1ccccc1)c1ccccc1 (centres unmarked) [Example 270, diphenyl(asparaginate-O,N)borane] ? 111

So what does the record say about TGase activity remaining (% of DMSO control = 100) for COc1ccc(B(O)c2cccc(COCc3cccc(B(O)c4ccc(OC)cc4)c3)c2)cc1 [Example 328] ? 100

So what does the record say about TGase activity remaining (% of DMSO control = 100) for CN(C)CCOB(c1ccc(COCc2ccc(B(OCCN(C)C)c3ccc(F)c(F)c3)cc2)cc1)c1ccc(F)c(F)c1 [Example 418] ? 45

So what does the record say about TGase activity remaining (% of DMSO control = 100) for NCCSB(c1ccccc1)c1ccc(-c2ccc(B(SCCN)c3ccccc3)cc2)cc1 [Example 9] ? 12

So what does the record say about TGase activity remaining (% of DMSO control = 100) for COc1ccc(NCCOBc2cccc(COCc3cccc(BOCCNc4ccc(OC)cc4)c3)c2)cc1 [Example 343] ? 55

So what does the record say about TGase activity remaining (% of DMSO control = 100) for NCCOB(c1ccc(COCc2cccc(B(OCCN)c3cc(F)c(F)c(F)c3)c2)cc1)c1cc(F)c(F)c(F)c1 [Example 354] ? 113

So what does the record say about TGase activity remaining (% of DMSO control = 100) for Cc1ccc(Cl)cc1B(OCC1CCCCN1)c1cc(Cl)ccc1C (centres unmarked) [Example 242] ? 98

Source: patent US8853424B2
